- Read-out: Hypoxia-inducible factor 1-alpha (Homo sapiens)
- Assay Info: LTEA_HepaRG_HIF1A: Life Technologies and Expression Analysis (LTEA) Assay for Hypoxia-inducible factor 1 (HIF1A) Trancription factor using HepaRG (AID 2283503);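 note: HIF1A transcript by TaqMan qRT-PCR normalized to ACTB GAPDH and POLR2A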
- Measurement Context: mRNA level, 48 h; actives raise or lower the signal
Active and inactive are the calls of the source. Rule for the calls: active = hit-call score of the fitted dose curve at least 0.9, where 1 is the maximum; inactive = score below 0.9.
Entry note: the call must match one of T = active, F = inactive

Here are 5 compounds together with their reported answers.
CCOP(=O)(NC(C)C)Oc1ccc(SC)c(C)c1 (configuration not stated) : F
CNC(=O)ON=C(SC)C(=O)N(C)C : F
O=C(O)c1cc(Oc2ccc(C(F)(F)F)cc2Cl)ccc1[N+](=O)[O-] : F
CC(=NC#N)N(C)Cc1ccc(Cl)nc1 : F
CCCSP(=O)(OCC)SCCC : F

[ask] Recorded call for `COc1ccc(C(=CC(=O)N2CCOCC2)c2ccc(Cl)cc2)cc1OC` ?
[reply] F

[ask] Now consider `C[Si](Cn1cncn1)(c1ccc(F)cc1)c1ccc(F)cc1` and answer again.
[reply] F

[ask] And `CCOP(=S)(OCC)Oc1ccc2c(C)c(Cl)c(=O)oc2c1` ?
[reply] F

[ask] What do you get for `C=C(C)[C@H]1Cc2c(ccc3c2O[C@@H]2COc4cc(OC)c(OC)cc4[C@@H]2C3=O)O1` ?
[reply] T

[ask] Field entry: `CCOP(=S)(OCC)Oc1cc(C)nc(C(C)C)n1`
[reply] F

[ask] Same question, `CCC(=O)Nc1ccc(Cl)c(Cl)c1` this time
[reply] F

[ask] Try `CN(C)NC(=O)CCC(=O)O` next.
[reply] F
